// provenance: paper PMC9154192

tested on: M. tuberculosis H37Ra; assay: microbe, parasite or virus in culture; assay type: cell-based, Mycobacterium tuberculosis
Attribute: MIC

[[record]]
compound = "CCCCOc1ccc(/C=C(/C(=O)OC)c2ccc(OC)c(OC)c2)cc1 [DPGA9]"
reported = "25 µg/mL"

[[record]]
compound = "COC(=O)/C(=C/c1ccc(OCc2ccccc2)cc1)c1ccc(OC)c(OC)c1 [DPGA3]"
reported = "3.1 µg/mL"

[[record]]
compound = "CCCCOc1ccc(/C=C(/C(=O)O)c2ccc(OC)c(OC)c2)cc1 [DPGA8]"
reported = ">100 µg/mL"


GET /values?readout=MIC&item= COc1ccc(/C(=C\c2ccc(OCc3ccccc3)cc2)C(=O)O)cc1OC [DPGA2] 100 µg/mL

====

Attribute: MIC
tested on: clinically isolated MDR, XDR, and TDR M. tuberculosis strains; experiment: microbe, parasite or virus in culture; format: cell-based; conditions: Mycobacterium tuberculosis, TDR-1
Provide only the numeric value, understood in µg/mL.

[[record]]
compound = "CCCCOc1ccc2cc(CN3C(=O)CC[C@H]3C(=O)OC)c3cc(OC)c(OC)cc3c2c1 [PP2S]"
unit_tag = "µg/mL"
reported = 1.6


Next item in the queue.
GET /values?readout=MIC&item= COC(=O)[C@@H]1CCC(=O)N1Cc1cc2ccc(OCc3ccccc3)cc2c2cc(OC)c(OC)cc12 [PP3S] 0.8

====

Attribute: CC50
assay: in vitro; type: cell-based; settings: human; HEK-293

Before answering, review these 3 worked examples.
[[record]]
molecule = "COC(=O)[C@@H]1CCC(=O)N1Cc1cc2ccc(OCc3ccccc3)cc2c2cc(OC)c(OC)cc12"
reported = "7.8 µg/mL"

[[record]]
molecule = "COC(=O)[C@@H]1CCC(=O)N1Cc1cc2ccc(OC)cc2c2cc(OC)c(OC)cc12"
reported = "> 500 µg/mL"

[[record]]
molecule = "CO[C@H]1/C=C/O[C@@]2(C)Oc3c(C)c(O)c4c(O)c(c(/C=N/N5CCN(C)CC5)c(O)c4c3C2=O)NC(=O)/C(C)=C\\C=C\\[C@H](C)[C@H](O)[C@@H](C)[C@@H](O)[C@@H](C)[C@H](OC(C)=O)[C@@H]1C [RIF, rifampicin, reference compound]"
reported = "> 500 µg/mL"


GET /values?readout=CC50&item= CCCCOc1ccc2cc(CN3C(=O)CC[C@H]3C(=O)OC)c3cc(OC)c(OC)cc3c2c1 > 500 µg/mL

NNC(=O)c1ccncc1 [INH, isoniazid, reference compound] ? > 500 µg/mL

====

tested on: M. tuberculosis H37Rv; experiment: microbe, parasite or virus in culture; assay type: cell-based, Mycobacterium tuberculosis; details: ratio of CC50 for L929 fibroblasts to MIC for strain H37Rv
Observation Type: SI (CC50/MIC)

Before answering, review these 5 worked examples.
[[record]]
chem_smiles = "COC(=O)c1cc2ccc(O)cc2c2cc(OC)c(OC)cc12"
target_or_system = "M. tuberculosis H37Rv"
observation_type = "SI (CC50/MIC)"
reported = "<0.3"

[[record]]
chem_smiles = "CCCCOc1ccc2cc(CO)c3cc(OC)c(OC)cc3c2c1"
target_or_system = "M. tuberculosis H37Rv"
observation_type = "SI (CC50/MIC)"
reported = "<0.7"

[[record]]
chem_smiles = "CCCCOc1ccc(/C=C(/C(=O)OC)c2ccc(OC)c(OC)c2)cc1"
target_or_system = "M. tuberculosis H37Rv"
observation_type = "SI (CC50/MIC)"
reported = ">4.0"

[[record]]
chem_smiles = "CCCCOc1ccc(/C=C(/C(=O)O)c2ccc(OC)c(OC)c2)cc1"
target_or_system = "M. tuberculosis H37Rv"
observation_type = "SI (CC50/MIC)"
reported = "<0.9"

[[record]]
chem_smiles = "COC(=O)c1cc2ccc(OCC(C)C)cc2c2cc(OC)c(OC)cc12"
target_or_system = "M. tuberculosis H37Rv"
observation_type = "SI (CC50/MIC)"
reported = "<0.4"


GET /values?readout=SI (CC50/MIC)&item= CCCCOc1ccc2cc(C(=O)OC)c3cc(OC)c(OC)cc3c2c1 <0.2

COC(=O)[C@@H]1CCC(=O)N1Cc1cc2ccc(OC)cc2c2cc(OC)c(OC)cc12 ? >62.5

COC(=O)/C(=C/c1ccc(OCc2ccccc2)cc1)c1ccc(OC)c(OC)c1 ? >32.2

====

test system: M. smegmatis; assay: microbe, parasite or virus in culture; type: cell-based, Mycobacterium smegmatis; conditions: Mycolicibacterium smegmatis
Attribute: MIC
Provide only the numeric value, understood in µg/mL.

Before answering, review these 3 worked examples.
[[record]]
compound = "CC[C@@H](CO)NCCN[C@@H](CC)CO"
unit_tag = "µg/mL"
reported = 0.8

[[record]]
compound = "[H]/N=C(/N)N[C@H]1[C@H](O)[C@@H](O)[C@H](O[C@@H]2O[C@@H](C)[C@](O)(C=O)[C@H]2O[C@@H]2O[C@@H](CO)[C@H](O)[C@@H](O)[C@@H]2NC)[C@@H](N/C(N)=N\\[H])[C@@H]1O"
unit_tag = "µg/mL"
reported = 0.2

[[record]]
compound = "CO[C@H]1/C=C/O[C@@]2(C)Oc3c(C)c(O)c4c(O)c(c(/C=N/N5CCN(C)CC5)c(O)c4c3C2=O)NC(=O)/C(C)=C\\C=C\\[C@H](C)[C@H](O)[C@@H](C)[C@@H](O)[C@@H](C)[C@H](OC(C)=O)[C@@H]1C [RIF, rifampicin, reference compound]"
unit_tag = "µg/mL"
reported = 25


Next item in the queue.
GET /values?readout=MIC&item= NNC(=O)c1ccncc1 [INH, isoniazid, reference compound] 25

====

assay: in vitro; assay type: cell-based; conditions: human; SH-SY5Y
Observation Type: CC50

Before answering, review these 3 worked examples.
[[record]]
compound = "COC(=O)[C@@H]1CCC(=O)N1Cc1cc2ccc(OCc3ccccc3)cc2c2cc(OC)c(OC)cc12"
reported = "7.8 µg/mL"

[[record]]
compound = "COC(=O)[C@@H]1CCC(=O)N1Cc1cc2ccc(OC)cc2c2cc(OC)c(OC)cc12"
reported = "> 500 µg/mL"

[[record]]
compound = "NNC(=O)c1ccncc1 [INH, isoniazid, reference compound]"
reported = "> 500 µg/mL"


GET /values?readout=CC50&item= CCCCOc1ccc2cc(CN3C(=O)CC[C@H]3C(=O)OC)c3cc(OC)c(OC)cc3c2c1 > 500 µg/mL

CO[C@H]1/C=C/O[C@@]2(C)Oc3c(C)c(O)c4c(O)c(c(/C=N/N5CCN(C)CC5)c(O)c4c3C2=O)NC(=O)/C(C)=C\C=C\[C@H](C)[C@H](O)[C@@H](C)[C@@H](O)[C@@H](C)[C@H](OC(C)=O)[C@@H]1C [RIF, rifampicin, reference compound] ? > 500 µg/mL

====

test system: M. gordonae; experiment: microbe, parasite or virus in culture; type: cell-based; conditions: Mycobacterium gordonae
Observation Type: MIC

Before answering, review these 3 worked examples.
[[record]]
compound = "COC(=O)[C@@H]1CCC(=O)N1Cc1cc2ccc(OCc3ccccc3)cc2c2cc(OC)c(OC)cc12"
target_or_system = "M. gordonae"
reported = "> 100 µg/mL"

[[record]]
compound = "[H]/N=C(/N)N[C@H]1[C@H](O)[C@@H](O)[C@H](O[C@@H]2O[C@@H](C)[C@](O)(C=O)[C@H]2O[C@@H]2O[C@@H](CO)[C@H](O)[C@@H](O)[C@@H]2NC)[C@@H](N/C(N)=N\\[H])[C@@H]1O"
target_or_system = "M. gordonae"
reported = "100 µg/mL"

[[record]]
compound = "CO[C@H]1/C=C/O[C@@]2(C)Oc3c(C)c(O)c4c(O)c(c(/C=N/N5CCN(C)CC5)c(O)c4c3C2=O)NC(=O)/C(C)=C\\C=C\\[C@H](C)[C@H](O)[C@@H](C)[C@@H](O)[C@@H](C)[C@H](OC(C)=O)[C@@H]1C [RIF, rifampicin, reference compound]"
target_or_system = "M. gordonae"
reported = "3.1 µg/mL"


GET /values?readout=MIC&item= CCCCOc1ccc2cc(CN3C(=O)CC[C@H]3C(=O)OC)c3cc(OC)c(OC)cc3c2c1 > 100 µg/mL

COC(=O)[C@@H]1CCC(=O)N1Cc1cc2ccc(OC)cc2c2cc(OC)c(OC)cc12 ? > 100 µg/mL

CC[C@@H](CO)NCCN[C@@H](CC)CO ? > 100 µg/mL

NC(=O)c1cnccn1 [PZA, pyrazinamide] ? > 100 µg/mL

NNC(=O)c1ccncc1 [INH, isoniazid, reference compound] ? > 100 µg/mL

====

experiment: in vitro; assay type: cell-based, murine; settings: mouse, L929, MTT assay (Table S1)
Attribute: CC50
Provide only the numeric value, understood in µg/mL.

[[record]]
chem_smiles = "COC(=O)c1cc2ccc(OCC(C)C)cc2c2cc(OC)c(OC)cc12"
observation_type = "CC50"
reported = 40.3

[[record]]
chem_smiles = "COC(=O)c1cc2ccc(O)cc2c2cc(OC)c(OC)cc12"
observation_type = "CC50"
reported = 34.9

[[record]]
chem_smiles = "CCCCOc1ccc2cc(CO)c3cc(OC)c(OC)cc3c2c1"
observation_type = "CC50"
reported = 73.7


GET /values?readout=CC50&item= CCCCOc1ccc2cc(C(=O)OC)c3cc(OC)c(OC)cc3c2c1 21.5
